Please go through the items and note down their IC50.
Molecular target: human IRAK4 (Homo sapiens)
Sequence (Q9NWZ3 whole entry): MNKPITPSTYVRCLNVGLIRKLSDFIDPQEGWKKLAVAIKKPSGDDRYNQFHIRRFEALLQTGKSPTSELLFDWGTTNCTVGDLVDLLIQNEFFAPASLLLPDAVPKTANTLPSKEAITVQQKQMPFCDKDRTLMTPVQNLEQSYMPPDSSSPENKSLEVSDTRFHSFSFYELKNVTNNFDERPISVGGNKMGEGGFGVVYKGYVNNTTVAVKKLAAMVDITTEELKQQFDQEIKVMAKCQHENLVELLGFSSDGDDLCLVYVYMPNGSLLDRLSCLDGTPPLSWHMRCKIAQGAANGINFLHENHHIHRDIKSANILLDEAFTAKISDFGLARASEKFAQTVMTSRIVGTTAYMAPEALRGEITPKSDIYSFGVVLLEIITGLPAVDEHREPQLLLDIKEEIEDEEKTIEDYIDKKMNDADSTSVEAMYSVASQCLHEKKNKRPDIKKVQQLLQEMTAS
Give bare numbers, in nM.

1. COc1cc2nn([C@H]3C[C@H](C(C)(C)O)C3)cc2cc1NC(=O)c1cccc(C(F)(F)F)n1
1.1

We next turn to a different molecule, shown below.
q: Find IC50 (human IRAK4 (Homo sapiens)) for the entry "COc1cc2nn([C@H]3CC[C@H](O)CC3)cc2cc1NC(=O)c1cccc(C2CC2)[n+]1[O-]"
a: 2.5
